# tested on: Aminopeptidase N (Rattus norvegicus)
# test method notes: Compound was evaluated for its inhibitory potency against purified membrane bound rat brain Aminopeptidase M (AP-M) using [3H]Leu-enkephalin as substrate
pIC50: −log10 of the molar value. Residues, ends and D or L forms follow the SMILES beside them.
Quick reference: pIC50 of the listed items.
readout kind: pIC50

| molecule | tested on | readout kind | comparison symbol | reported result |
| --- | --- | --- | --- | --- |
| COC(=O)[C@H](CC(C)C)NC(=O)[C@@H](O)[C@@H](N)CCCCN.COC(=O)[C@H](CC(C)C)NC(=O)[C@H](O)[C@@H](N)CCCCN | Aminopeptidase N (Rattus norvegicus) | pIC50 | < | 3.00 |
| COC(=O)[C@@H](Cc1c(Sc2ccccc2[N+](=O)[O-])[nH]c2ccccc12)NC(=O)[C@H](O)[C@@H](N)CCCCN | Aminopeptidase N (Rattus norvegicus) | pIC50 | = | 3.65 |
| NCCCC[C@H](N)C(=O)N[C@@H](Cc1c[nH]c2ccccc12)C(=O)O (H-Lys-Trp-OH) | Aminopeptidase N (Rattus norvegicus) | pIC50 | < | 3.00 |
| COC(=O)[C@@H](Cc1c(Sc2ccccc2[N+](=O)[O-])[nH]c2ccccc12)NC(=O)C(O)[C@H](N)CCCCN (stereo not given in full) | Aminopeptidase N (Rattus norvegicus) | pIC50 | = | 4.04 |
| COC(=O)[C@H](Cc1c(Sc2ccccc2[N+](=O)[O-])[nH]c2ccccc12)NC(=O)[C@@H](O)[C@H](N)CCCCN | Aminopeptidase N (Rattus norvegicus) | pIC50 | = | 5.15 |

====

# tested on: Aminopeptidase N (Rattus norvegicus, UniProt P15684)
# Sequence (P15684 whole entry): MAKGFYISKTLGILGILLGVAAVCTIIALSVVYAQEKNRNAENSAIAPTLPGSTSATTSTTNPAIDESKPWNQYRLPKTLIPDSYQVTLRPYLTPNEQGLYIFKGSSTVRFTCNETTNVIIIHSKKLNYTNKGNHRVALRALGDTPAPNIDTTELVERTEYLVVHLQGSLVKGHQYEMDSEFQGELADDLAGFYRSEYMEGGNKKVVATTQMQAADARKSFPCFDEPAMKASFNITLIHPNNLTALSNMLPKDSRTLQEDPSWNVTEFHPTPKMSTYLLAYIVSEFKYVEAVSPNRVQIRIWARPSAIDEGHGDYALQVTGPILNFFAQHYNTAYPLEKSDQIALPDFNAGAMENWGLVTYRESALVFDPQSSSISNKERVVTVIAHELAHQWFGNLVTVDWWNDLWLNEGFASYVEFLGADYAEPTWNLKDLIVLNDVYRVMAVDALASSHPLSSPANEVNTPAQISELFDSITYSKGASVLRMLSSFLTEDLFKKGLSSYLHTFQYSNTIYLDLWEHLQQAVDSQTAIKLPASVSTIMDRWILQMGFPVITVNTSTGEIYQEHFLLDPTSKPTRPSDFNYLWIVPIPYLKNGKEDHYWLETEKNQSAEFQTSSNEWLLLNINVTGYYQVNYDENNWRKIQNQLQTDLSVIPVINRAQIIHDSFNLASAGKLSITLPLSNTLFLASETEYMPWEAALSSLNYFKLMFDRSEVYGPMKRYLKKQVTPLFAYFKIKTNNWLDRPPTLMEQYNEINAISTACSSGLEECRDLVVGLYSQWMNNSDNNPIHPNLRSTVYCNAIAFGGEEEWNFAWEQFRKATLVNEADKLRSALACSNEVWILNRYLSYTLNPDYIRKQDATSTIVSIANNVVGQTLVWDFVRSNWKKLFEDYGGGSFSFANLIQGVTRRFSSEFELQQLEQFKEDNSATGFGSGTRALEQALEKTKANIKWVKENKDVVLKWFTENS
# test method notes: Compound was evaluated for its inhibitory potency against purified membrane bound rat brain Aminopeptidase M using [3H]Leu-enkephalin as substrate
# Assay type: functional
pIC50: −log10 of the molar value.
Recorded pIC50 values for a group of compounds are listed next.

| smiles record | comparison symbol | pIC50 |
| --- | --- | --- |
| COC(=O)[C@@H](Cc1c[nH]c2ccccc12)NC(=O)[C@H](O)[C@@H](N)CCCCN | < | 3.00 |
| COC(=O)[C@H](Cc1c[nH]c2ccccc12)NC(=O)[C@H](O)[C@H](N)CCCCN | = | 3.30 |
| COC(=O)[C@@H](Cc1c[nH]c2ccccc12)NC(=O)[C@@H](O)[C@@H](N)CCCCN | < | 3.00 |
| COC(=O)[C@H](Cc1c[nH]c2ccccc12)NC(=O)[C@@H](O)[C@@H](N)CCCCN.COC(=O)[C@H](Cc1c[nH]c2ccccc12)NC(=O)[C@H](O)[C@@H](N)CCCCN | < | 3.00 |
| COC(=O)[C@H](Cc1c(Sc2ccccc2[N+](=O)[O-])[nH]c2ccccc12)NC(=O)[C@@H](N)CCCCN | = | 3.58 |
| COC(=O)[C@H](Cc1c[nH]c2ccccc12)NC(=O)[C@@H](O)[C@H](N)CCCCN.Cl.Cl | = | 4.99 |
